assay.procedure: acute toxicity in mice
measurement.context: mouse, in vivo, oral, formulated in aqueous PVP, read-out: Oral LD50
quantity: LD50 (mg/kg)
Just the number please, in mg/kg, no unit attached.

Reported LD50 of [C-]#[N+]C(=CC1=C[C@@H](O)[C@H](O)CC1)C(=CC1CCC(OC(=O)C=C(C)C)CC1)[N+]#[C-] (relative stereo) : 8.84

---

Test system: Pseudomonas solanacearum
assay.procedure: microbe, parasite or virus in culture
Type: cell-based
measurement.context: Ralstonia solanacearum; conc 0.1 mg/ml; read-out: Zone Diameters
# zone of inhibition at 100 µg/mL >= 20 mm gives T, anything below gives F

These solved cases illustrate the format of a correct answer.
Q. Can [C-]#[N+]C(=CC1=C[C@@H](O)[C@@H](O)CC1)C(=CC1CCC(OC(=O)C=C(C)C)CC1)[N+]#[C-] (relative stereo) [Factor E] be said to have zone of inhibition at 100 µg/mL at or above 20 mm?
A. T

Q. Can [C-]#[N+]C(=CC1CCC(OC(=O)CC(C)C)CC1)C(=CC1(OC(C)=O)C=CC(O)CC1)[N+]#[C-] (centres unmarked) [Factor K] be said to have zone of inhibition at 100 µg/mL at or above 20 mm?
A. F

Q. Can [C-]#[N+]C(=CC1=C[C@@H](OC)[C@@H](O)CC1)C(=CC1CCC(OC(=O)C=C(C)C)CC1)[N+]#[C-] (relative stereo) [Factor J] be said to have zone of inhibition at 100 µg/mL at or above 20 mm?
A. T

***
Q. Can [C-]#[N+]C(=CC1=C[C@@H](O)[C@H](O)CC1)C(=CC1CCC(OC(=O)C=C(C)C)CC1)[N+]#[C-] (relative stereo) [Factor A] be said to have zone of inhibition at 100 µg/mL at or above 20 mm?
A. T

---

LD50 reference
assay.procedure: acute toxicity in mice
measurement.context: mouse, in vivo, ip, intraperitoneal, formulated in aqueous PVP, read-out: Intraperitoneal LD50
Just the number please, in mg/kg, no unit attached.

Reported LD50 of [C-]#[N+]C(=CC1=C[C@@H](O)[C@H](O)CC1)C(=CC1CCC(OC(=O)C=C(C)C)CC1)[N+]#[C-] (relative stereo) [Factor A] : 3.12

***
Reported LD50 of [C-]#[N+]C(=Cc1ccc(O)cc1)C(=CC1CCC(OC(=O)C=C(C)C)CC1)[N+]#[C-] (stereo not shown) [Factor D] : 0.992

Reported LD50 of [C-]#[N+]C(=CC1CCC(OC(=O)C=C(C)C)CC1)C(=CC1(OC(C)=O)C=CC(=O)CC1)[N+]#[C-] (stereo not shown) [Factor F] : 5

---

zone of inhibition at 100 µg/mL reference
System: Bacillus subtilis
assay.procedure: standard disc-plate assay
Format: cell-based
measurement.context: conc 0.1 mg/ml, disc 6.35 mm, read-out: Zone Diameters
Just the number please, in mm, no unit attached.

Example cases with answers are listed next.
Reported zone of inhibition at 100 µg/mL of [C-]#[N+]C(=CC1CCC(OC(=O)C=C(C)C)CC1)C(=CC1(OC(C)=O)C=CC(O)CC1)[N+]#[C-] (centres unmarked) : 30

Reported zone of inhibition at 100 µg/mL of [C-]#[N+]C(=CC1=C[C@@H](OC(C)=O)[C@H](O)CC1)C(=CC1CCC(OC(=O)C=C(C)C)CC1)[N+]#[C-] (relative stereo) : 16

Reported zone of inhibition at 100 µg/mL of O=CNC=Cc1ccc(O)cc1 : 21

Reported zone of inhibition at 100 µg/mL of [C-]#[N+]C(=CC1CCC(OC(=O)C=C(C)C)CC1)C(=CC1(OC(C)=O)C=CC(=O)CC1)[N+]#[C-] (centres unmarked) : 27

***
Reported zone of inhibition at 100 µg/mL of [C-]#[N+]C(=Cc1ccc(O)cc1)C(=CC1CCC(OC(=O)C=C(C)C)CC1)[N+]#[C-] (centres unmarked) : 18

---

zone of inhibition at 100 µg/mL reference
Tested on: Micrococcus luteus
assay.procedure: standard disc-plate assay
Type: cell-based
measurement.context: read-out: Zone Diameters
Just the number please, in mm, no unit attached.

Example cases with answers are listed next.
Reported zone of inhibition at 100 µg/mL of [C-]#[N+]C(=CC1CCC(OC(=O)CC(C)C)CC1)C(=CC1(OC(C)=O)C=CC(O)CC1)[N+]#[C-] (centres unmarked) [Factor K] : 29

Reported zone of inhibition at 100 µg/mL of [C-]#[N+]C(=CC1=C[C@@H](O)[C@@H](O)CC1)C(=CC1CCC(OC(=O)C=C(C)C)CC1)[N+]#[C-] (relative stereo) [Factor E] : 24

***
Reported zone of inhibition at 100 µg/mL of [C-]#[N+]C(=CC1=C[C@@H](O)[C@H](O)CC1)C(=CC1CCC(O)CC1)[N+]#[C-] (relative stereo) [Factor C] : 33

Reported zone of inhibition at 100 µg/mL of [C-]#[N+]C(=CC1=C[C@@H](O)[C@H](O)CC1)C(=CC1CCC(OC(=O)C=C(C)C)CC1)[N+]#[C-] (relative stereo) [Factor A] : 36

Reported zone of inhibition at 100 µg/mL of [C-]#[N+]C(=CC1=C[C@@H](OC)[C@@H](O)CC1)C(=CC1CCC(OC(=O)C=C(C)C)CC1)[N+]#[C-] (relative stereo) [Factor J] : 29

---

zone of inhibition at 100 µg/mL reference
Tested on: Salmonella gallinarium
assay.procedure: standard disc-plate assay
Assay type: cell-based
measurement.context: conc 0.1 mg/ml, disc 6.35 mm, read-out: Zone Diameters
Just the number please, in mm, no unit attached.

Example cases with answers are listed next.
Reported zone of inhibition at 100 µg/mL of [C-]#[N+]C(=CC1CCC(OC(=O)C=C(C)C)CC1)C(=CC1(OC(C)=O)C=CC(O)CC1)[N+]#[C-] (stereo not shown) : 23

Reported zone of inhibition at 100 µg/mL of [C-]#[N+]C(=CC1=C[C@@H](OC(C)=O)[C@H](O)CC1)C(=CC1CCC(OC(=O)C=C(C)C)CC1)[N+]#[C-] (relative stereo) : 16

Reported zone of inhibition at 100 µg/mL of [C-]#[N+]C(=Cc1ccc(O)cc1)C(=CC1CCC(OC(=O)C=C(C)C)CC1)[N+]#[C-] (stereo not shown) : 14

We next turn to a different molecule, shown below.
Reported zone of inhibition at 100 µg/mL of [C-]#[N+]C(=CC1CCC(OC(=O)C=C(C)C)CC1)C(=CC1(OC(C)=O)C=CC(=O)CC1)[N+]#[C-] (stereo not shown) : 11

---

Test system: Saccharomyces pastorianus
assay.procedure: standard disc-plate assay
Type: cell-based
measurement.context: conc 0.1 mg/ml, disc 6.35 mm, ^b overgrowth: factors B, C, F, read-out: Zone Diameters
# zone of inhibition at 100 µg/mL >= 20 mm gives TRUE, anything below gives FALSE

These solved cases illustrate the format of a correct answer.
Q. Can O=CNC=Cc1ccc(O)cc1 be said to have zone of inhibition at 100 µg/mL at or above 20 mm?
A. FALSE

Q. Can [C-]#[N+]C(=CC1=C[C@@H](OC(C)=O)[C@H](O)CC1)C(=CC1CCC(OC(=O)C=C(C)C)CC1)[N+]#[C-] (relative stereo) be said to have zone of inhibition at 100 µg/mL at or above 20 mm?
A. FALSE

Q. Can [C-]#[N+]C(=CC1CCC(OC(=O)C=C(C)C)CC1)C(=CC1(OC(C)=O)C=CC(=O)CC1)[N+]#[C-] (centres unmarked) be said to have zone of inhibition at 100 µg/mL at or above 20 mm?
A. TRUE

Q. Can [C-]#[N+]C(=Cc1ccc(O)cc1)C(=CC1CCC(OC(=O)C=C(C)C)CC1)[N+]#[C-] (centres unmarked) be said to have zone of inhibition at 100 µg/mL at or above 20 mm?
A. FALSE

Next up:
Q. Can [C-]#[N+]C(=CC1CCC(OC(=O)C=C(C)C)CC1)C(=CC1(OC(C)=O)C=CC(O)CC1)[N+]#[C-] (centres unmarked) be said to have zone of inhibition at 100 µg/mL at or above 20 mm?
A. TRUE

---

System: Staphylococcus aureus
assay.procedure: standard disc-plate assay
Format: cell-based
measurement.context: read-out: Zone Diameters
# zone of inhibition at 100 µg/mL >= 20 mm gives true (1), anything below gives false (0)

These solved cases illustrate the format of a correct answer.
Q. Can [C-]#[N+]C(=CC1=C[C@@H](OC)[C@@H](O)CC1)C(=CC1CCC(OC(=O)C=C(C)C)CC1)[N+]#[C-] (relative stereo) be said to have zone of inhibition at 100 µg/mL at or above 20 mm?
A. true (1)

Q. Can [C-]#[N+]C(=CC1=C[C@@H](O)[C@H](O)CC1)C(=CC1CCC(O)CC1)[N+]#[C-] (relative stereo) be said to have zone of inhibition at 100 µg/mL at or above 20 mm?
A. false (0)

Q. Can [C-]#[N+]C(=CC1CCC(OC(=O)CC(C)C)CC1)C(=CC1(OC(C)=O)C=CC(O)CC1)[N+]#[C-] (centres unmarked) be said to have zone of inhibition at 100 µg/mL at or above 20 mm?
A. true (1)

Q. Can [C-]#[N+]C(=CC1=C[C@@H](O)[C@H](O)CC1)C(=CC1CCC(OC(=O)C=C(C)C)CC1)[N+]#[C-] (relative stereo) be said to have zone of inhibition at 100 µg/mL at or above 20 mm?
A. true (1)

Next up:
Q. Can [C-]#[N+]C(=CC1=C[C@@H](O)[C@@H](O)CC1)C(=CC1CCC(OC(=O)C=C(C)C)CC1)[N+]#[C-] (relative stereo) be said to have zone of inhibition at 100 µg/mL at or above 20 mm?
A. true (1)
